The measured values listed here are drawn from the supplement of paper PMC10567573.

B1: CLPTM1 (parent)
chain: LGCYAVYSLLYLEHKGWYSWVLSM

variants of: B1; assay: protein stability index of a GFP-peptide fusion (GPS, HEK-293T) (PSI 1-6); higher = more stable; details: c terminus: a fixed tail appended;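 also: lentivirally expressed fusions sorted by FACS into six bins by GFP to DsRed ratio, PSI derived from sequencing read proportions per bin multiplied by bin number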

var | protein stability index
S23W | 3.03
V21A | 2.45
L9F | 4.07
Y11F | 3.26
V6N | 2.73
W20T | 2.45
S23I | 3.17
M24R | 2.3
S8K | 3.64
Y18L | 2.48
Y18R | 3.76
H14D | 2.41
H14P | 2.6
L10D | 3.21
H14S | 2.43
Y18K | 2.08
H14W | 3.16
V6H | 2.31
E13L | 3.4
L9D | 3.48
K15G | 1.81
G2E | 3.26
L1H | 2.19
Y4T | 3.11
G16M | 2.67
K15S | 2.73
L9C | 2.03
C3D | 2.59
V6L | 3.28
C3H | 2.58
L12F | 3.31
L22S | 3.49
L1V | 2.65
L22Y | 3.5
G16N | 2.7
L9K | 2.65
W20C | 3.98
K15H | 3.75
C3P | 2.26
Y4V | 3.14
L9H | 1.71
G2W | 2.07
Y11D | 2.36
L12K | 3.11
G16V | 2.84
Y11I | 3
C3N | 3.61
Y11E | 3.13
G2L | 3.57
H14T | 3.37
Y4P | 3.14
G16F | 2
K15Q | 1.25
W20R | 2.84
K15N | 3.11
W20V | 3.55
